Biological target: Rev peptide (Human immunodeficiency virus 1)
Test: FRET quenching; ±23; TAMRA-Rev and DABCYL-RRE; 50 mM Tris pH 8, 50 mM KCl, room temp
Conditions: protein: synthetic; tags: chemically synthesised peptide; N-terminal TAMRA; label: 3'-DABCYL or 5'-FAM; hairpin
Parameter: Kd (nM)
Write the number in nM without appending the unit.

Which Kd is listed for CGUGUGGGCGCAGCGUCAAUGACGCUGCGGUACACACG (ssRNA) [RRE RNA] ?
137
